test system: sperm; assay: Post thaw DNA fragmentation Elk (Example 3); assay type: cell-based; settings: post thaw 0 HR
reported_endpoint: DNA fragmentation Post Sort (%)

>>> experimental_value("O=S(=O)([O-])c1ccc(N=Nc2c(O)ccc3cc(S(=O)(=O)[O-])ccc23)cc1.[Na+].[Na+]")
0

---

Test system: sperm
Test: Post thaw DNA fragmentation Elk (Example 3)
Type: cell-based
Conditions: post thaw 24 HR
Experimental: Each of deer and elk were collected in the Tris-egg yolk catch fluid described as a catch media in Example 1, and shipped for sorting. A portion of each of the deer and the elk were stained by the red food dye No. 40 treatment 40% with 16 μL Hoechst 33342 and the yellow food dye No. 6 treatment with 14 μL Hoechst 33342 as described in Example 1. Samples were each bulk sorted with the same machine and parameters described in Example 1. […]
reported_endpoint: DNA fragmentation Post Sort (%)

>>> experimental_value("O=S(=O)([O-])c1ccc(N=Nc2c(O)ccc3cc(S(=O)(=O)[O-])ccc23)cc1.[Na+].[Na+]")
0
